// data source = patent US5041567A

System: Haemophilus influenzae Q1
Method summary: MIC against human bacteria in vitro
Type: cell-based
Study conditions: Haemophilus influenzae Q1; 5% chocolated horse blood agar, 18 hours; read-out: MIC
Outcome measure: MIC
Phrase the answer as number then unit, nothing more needed.

# input Need MIC, item `C/C(=C\c1nc(-c2ccccc2)c(-c2ccccc2)o1)C[C@@H]1OC[C@H](C[C@@H]2O[C@H]2[C@@H](C)[C@H](C)O)[C@@H](O)[C@H]1O`
# output 10 µg/mL

# input What does the data say about its MIC? Entry: `C/C(=C\c1nc(C)c(-c2ccccc2)o1)C[C@@H]1OC[C@H](C[C@@H]2O[C@H]2[C@@H](C)[C@H](C)O)[C@@H](O)[C@H]1O`
# output 50 µg/mL

# input Entry `C/C(=C\c1ncc(-c2ccc([N+](=O)[O-])cc2)o1)C[C@@H]1OC[C@H](C[C@@H]2O[C@H]2[C@@H](C)[C@H](C)O)[C@@H](O)[C@H]1O` has what MIC?
# output 0.1 µg/mL

# input # get_value(readout='MIC', item= `C/C(=C\c1ncc(-c2cccc(C#N)c2)o1)C[C@@H]1OC[C@H](C[C@@H]2O[C@H]2[C@@H](C)[C@H](C)O)[C@@H](O)[C@H]1O` )
# output 1.2 µg/mL

# input # get_value(readout='MIC', item= `C/C(=C\c1ncc(-c2cccc([N+](=O)[O-])c2)o1)C[C@@H]1OC[C@H](C[C@@H]2O[C@H]2[C@@H](C)[C@H](C)O)[C@@H](O)[C@H]1O` )
# output 2 µg/mL

# input Param item = `C/C(=C/c1ncc(-c2ccccc2)o1)C[C@@H]1OC[C@H](C[C@@H]2O[C@H]2[C@@H](C)[C@H](C)O)[C@@H](O)[C@H]1O` ; retrieve measured MIC.
# output 12.5 µg/mL

# input Bench note: what MIC did `COc1ccc(-c2cnc(/C=C(\C)C[C@@H]3OC[C@H](C[C@@H]4O[C@H]4[C@@H](C)[C@H](C)O)[C@@H](O)[C@H]3O)o2)cc1` show?
# output 2.5 µg/mL

# input Given the compound `C/C(=C\c1ncc(C)o1)C[C@@H]1OC[C@H](C[C@@H]2O[C@H]2[C@@H](C)[C@H](C)O)[C@@H](O)[C@H]1O` , what is its reported MIC?
# output 2 µg/mL

====

Test system: K. aerogenes A
Method summary: MIC against human bacteria in vitro
Format: cell-based
Study conditions: Klebsiella aerogenes; K. aerogenes A; 5% chocolated horse blood agar, 18 hours; read-out: MIC
Can you tell me MIC for the items I'm about to list?

# input Hi! What's the reported MIC for C/C(=C\c1ncc(-c2ccc([S+](C)[O-])cc2)o1)C[C@@H]1OC[C@H](C[C@@H]2O[C@H]2[C@@H](C)[C@H](C)O)[C@@H](O)[C@H]1O (stereo partly drawn) on K. aerogenes A?
# output > 128 µg/mL

# input Quick check: MIC on K. aerogenes A, item `C/C(=C\c1ncc(-c2ccccc2)o1)C[C@@H]1OC[C@H](C[C@@H]2O[C@H]2[C@@H](C)[C@H](C)O)[C@@H](O)[C@H]1O` ?
# output > 100 µg/mL

# input API: value(readout=MIC, system=K. aerogenes A) for record `C/C(=C\c1ncc(-c2ccsc2)o1)C[C@@H]1OC[C@H](C[C@@H]2O[C@H]2[C@@H](C)[C@H](C)O)[C@@H](O)[C@H]1O`
# output > 128 µg/mL

====

System: M. suipneumoniae JF 435
Method summary: MIC against mycoplasma in vitro
Format: cell-based
Study conditions: Mesomycoplasma hyopneumoniae, JF435, 144 h; M. suipneumoniae JF 435; 6 days, 37° C.; read-out: MIC
Outcome measure: MIC (µg/mL)
Numbers only; they are read as µg/mL.

# input Look at this molecule and give its reported MIC. `C/C(=C\c1ncc(-c2ccc([N+](=O)[O-])cc2)o1)C[C@@H]1OC[C@H](C[C@@H]2O[C@H]2[C@@H](C)[C@H](C)O)[C@@H](O)[C@H]1O`
# output 0.25

# input # get_value(readout='MIC', item= `C/C(=C\c1ncc(-c2ccccc2)o1)C[C@@H]1OC[C@H](C[C@@H]2O[C@H]2[C@@H](C)[C@H](C)O)[C@@H](O)[C@H]1O` )
# output 1

# input Any idea what MIC was measured for `C/C(=C\c1cc(-c2ccccc2)no1)C[C@@H]1OC[C@H](C[C@@H]2O[C@H]2[C@@H](C)[C@H](C)O)[C@@H](O)[C@H]1O` ?
# output 10

====

System: Haemophilus influenzae Q1
Method summary: MIC against human bacteria in vitro
Assay type: cell-based
Study conditions: Haemophilus influenzae Q1; 5% chocolated horse blood agar, 18 hours; read-out: MIC
For each of the compounds below, state its MIC.
Express your answer in µg/mL, writing the number without its unit.

# input What does the data say about its MIC? Entry: `C/C(=C\c1ncc(-c2ccccc2)s1)C[C@@H]1OC[C@H](C[C@@H]2O[C@H]2[C@@H](C)[C@H](C)O)[C@@H](O)[C@H]1O`
# output 50

# input Returns the measured MIC for the input compound. Input: C/C(=C\c1ncc(-c2ccc([S+](C)[O-])cc2)o1)C[C@@H]1OC[C@H](C[C@@H]2O[C@H]2[C@@H](C)[C@H](C)O)[C@@H](O)[C@H]1O (stereo partly drawn)
# output 2

# input Look at this compound and give its reported MIC. `C/C(=C\c1nc(C)c(C)o1)C[C@@H]1OC[C@H](C[C@@H]2O[C@H]2[C@@H](C)[C@H](C)O)[C@@H](O)[C@H]1O`
# output 5

====

Tested on: Staph. aureus Oxford
Method summary: MIC against human bacteria in vitro
Type: cell-based
Study conditions: Staphylococcus aureus; Staph. aureus Oxford; 5% chocolated horse blood agar, 18 hours; read-out: MIC
Outcome measure: MIC
Write down the value, and be sure its unit follows.

# input Dear colleague, I am looking for the recorded MIC of the following compound: `C/C(=C\c1ncc(-c2ccccc2[N+](=O)[O-])o1)C[C@@H]1OC[C@H](C[C@@H]2O[C@H]2[C@@H](C)[C@H](C)O)[C@@H](O)[C@H]1O`
# output 4 µg/mL

# input Which MIC is reported for this compound? `C/C(=C\c1cc(-c2ccccc2)on1)C[C@@H]1OC[C@H](C[C@@H]2O[C@H]2[C@@H](C)[C@H](C)O)[C@@H](O)[C@H]1O`
# output 8 µg/mL

# input Query: MIC; subject: `COC(=O)c1ccc(-c2cnc(/C=C(\C)C[C@@H]3OC[C@H](C[C@@H]4O[C@H]4[C@@H](C)[C@H](C)O)[C@@H](O)[C@H]3O)o2)cc1`
# output 4 µg/mL

# input Bench note: what MIC did `C/C(=C\c1ncc(-c2ccc(C(=O)O)cc2)o1)C[C@@H]1OC[C@H](C[C@@H]2O[C@H]2[C@@H](C)[C@H](C)O)[C@@H](O)[C@H]1O` show?
# output 32 µg/mL

# input May I ask what MIC has been recorded for `C/C(=C\c1ncc(-c2ccc(CO)cc2)o1)C[C@@H]1OC[C@H](C[C@@H]2O[C@H]2[C@@H](C)[C@H](C)O)[C@@H](O)[C@H]1O` ?
# output 4 µg/mL

# input I am curious: what MIC value has been reported for `C/C(=C\c1ncc(-c2ccsc2)o1)C[C@@H]1OC[C@H](C[C@@H]2O[C@H]2[C@@H](C)[C@H](C)O)[C@@H](O)[C@H]1O` ?
# output 4 µg/mL

====

Test system: Past. multocida PA2
Method summary: MIC against veterinary bacteria in vitro
Study conditions: Pasteurella multocida, PA2, 18 h
Give measured MIC for each item. Keep answers brief.
Lab book: enter the figure in µg/mL, no units written.

# input Find MIC (Past. multocida PA2) for the entry `C/C(=C\c1ncc(Cc2ccccc2)o1)C[C@@H]1OC[C@H](C[C@@H]2O[C@H]2[C@@H](C)[C@H](C)O)[C@@H](O)[C@H]1O`
# output 5

# input Short answer please: MIC, Past. multocida PA2, entry `C/C(=C\c1ncc(-c2ccsc2)o1)C[C@@H]1OC[C@H](C[C@@H]2O[C@H]2[C@@H](C)[C@H](C)O)[C@@H](O)[C@H]1O`
# output 0.312

# input # value lookup — system Past. multocida PA2, readout MIC, item C/C(=C\c1ncc(-c2cccc([S+](C)[O-])c2)o1)C[C@@H]1OC[C@H](C[C@@H]2O[C@H]2[C@@H](C)[C@H](C)O)[C@@H](O)[C@H]1O (stereo partly drawn)
# output 2.5

====

Tested on: M. suipneumoniae ATCC 25095
Method summary: MIC against mycoplasma in vitro
Format: cell-based
Study conditions: Mesomycoplasma hyopneumoniae, ATCC25095, 144 h
Friendly reminder: MIC below 0.2 µg/mL is t, at or above is f.

# input Does `C/C(=C\c1ncc(-c2ccc(S(=O)(=O)N(C)C)cc2)o1)C[C@@H]1OC[C@H](C[C@@H]2O[C@H]2[C@@H](C)[C@H](C)O)[C@@H](O)[C@H]1O` have MIC strictly under 0.2 µg/mL?
# output t

# input Confirm or reject: MIC of `C/C(=C\c1ncc(-c2ccccc2[N+](=O)[O-])o1)C[C@@H]1OC[C@H](C[C@@H]2O[C@H]2[C@@H](C)[C@H](C)O)[C@@H](O)[C@H]1O` lies strictly below 0.2 µg/mL
# output f

# input Answer whether the compound `C/C(=C\c1ncc(C)o1)C[C@@H]1OC[C@H](C[C@@H]2O[C@H]2[C@@H](C)[C@H](C)O)[C@@H](O)[C@H]1O` has MIC strictly less than 0.2 µg/mL
# output f

# input Just wondering, is MIC of `C/C(=C\c1cc(C)on1)C[C@@H]1OC[C@H](C[C@@H]2O[C@H]2[C@@H](C)[C@H](C)O)[C@@H](O)[C@H]1O` below 0.2 µg/mL?
# output f

# input Please let me know if `CSc1ccc(-c2cnc(/C=C(\C)C[C@@H]3OC[C@H](C[C@@H]4O[C@H]4[C@@H](C)[C@H](C)O)[C@@H](O)[C@H]3O)o2)cc1` shows MIC below 0.2 µg/mL.
# output f

# input Regarding `C/C(=C\c1ncc(-c2cccc([N+](=O)[O-])c2)o1)C[C@@H]1OC[C@H](C[C@@H]2O[C@H]2[C@@H](C)[C@H](C)O)[C@@H](O)[C@H]1O` , kindly confirm whether its MIC is beneath 0.2 µg/mL.
# output t

# input # TODO verify MIC < 0.2 µg/mL strictly for this compound: `COc1ccc(-c2cnc(/C=C(\C)C[C@@H]3OC[C@H](C[C@@H]4O[C@H]4[C@@H](C)[C@H](C)O)[C@@H](O)[C@H]3O)o2)cc1`
# output f

# input Dear reviewer, please state whether `C/C(=C\c1ncc(-c2ccc(S(C)(=O)=O)cc2)o1)C[C@@H]1OC[C@H](C[C@@H]2O[C@H]2[C@@H](C)[C@H](C)O)[C@@H](O)[C@H]1O` has MIC strictly beneath 0.2 µg/mL.
# output t

# input A record lists `C/C(=C\c1ncc(-c2ccc(Br)s2)o1)C[C@@H]1OC[C@H](C[C@@H]2O[C@H]2[C@@H](C)[C@H](C)O)[C@@H](O)[C@H]1O` . Is its MIC below 0.2 µg/mL?
# output f
